B1: Osa-1-4 twister ribozyme (parent)
chain: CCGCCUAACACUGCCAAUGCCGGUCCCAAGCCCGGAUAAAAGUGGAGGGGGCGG

variants of: B1; test: self-cleavage, relative activity (ratio to wild type); higher = more cleavage; co-transcriptional
property: self-cleavage

variantNotation	assayValue
C31U G13C	0.02
C25U G47C	0.06
A8G C25A	0.08
C27U G51A	0.11
C15A G44C	0.33
A29G A41G	0.12
A46U G13A	0.03
C14G C33U	0.07
C27U G50A	0.18
C20U G49U	0.13
A28U G48C	0.06
A40U C21U	0.59
C32A U37A	0.14
A16C A38G	0.96
C15A G54U	0.43
A46G G22C	0.02
C33A C9A	0.05
A36C G35A	0.94
G54U U24C	0.23
G30U G53U	0.04
A16G U37C	1.03
C27U C31U	0.07
C14A G42C	0.05
G30A G51A	0.04
A36G U18G	0.85
A8C G44A	0.07
A36G U12C	0.69
A28G C27A	0.06
C11G C52A	0.24
C14A U12G	0.06
G49A G53U	0.09
A17G A36U	1.01
A17C A7U	0.06
A8U U18C	0.26
C20U G42A	0.62
G30A G44A	0.04
C14G C26A	0.03
A29G G22C	0.12
C52G U18A	0.91
C26G U43A	0.09
G23C U37C	0.07
A16C G19A	0.62
A39U C25U	0.45
G35U G42C	0.11
C21U G34A	1.05
A7G G44C	0.21
A40U C32G	0.07
G19A G45A	0.07
G49A U37C	0.19
A38U G23C	0.07
C15G C27A	0.08
C25G U37A	0.12
G44C U12C	0.31
C27A G34U	0.17
A41G G48A	0.08
A7U G13A	0.04
C14G G54C	0.06
A10C C9G	0.07
A29U G44A	0.06
A10U G13C	0.01
C11A G51A	0.17
A16U G22U	0.84
A10G A39C	0.61
C33G G42C	0.05
C9G G34U	0.12
A39U U24C	0.12
A38U G34C	0.5
C31U G51A	0.29
C33A G19U	0.04
G23A U12G	0.07
G23U G48C	0.03
G30A G50A	0.04
A40G U12A	0.75
A46U U12C	0.06
G54C	1
A40G C9A	0.09
C26G G13C	0.01
